Entry source: ChEMBL document CHEMBL1681635

Biological target: C-X-C chemokine receptor type 3 (Homo sapiens)
Sequence (P49682 whole entry): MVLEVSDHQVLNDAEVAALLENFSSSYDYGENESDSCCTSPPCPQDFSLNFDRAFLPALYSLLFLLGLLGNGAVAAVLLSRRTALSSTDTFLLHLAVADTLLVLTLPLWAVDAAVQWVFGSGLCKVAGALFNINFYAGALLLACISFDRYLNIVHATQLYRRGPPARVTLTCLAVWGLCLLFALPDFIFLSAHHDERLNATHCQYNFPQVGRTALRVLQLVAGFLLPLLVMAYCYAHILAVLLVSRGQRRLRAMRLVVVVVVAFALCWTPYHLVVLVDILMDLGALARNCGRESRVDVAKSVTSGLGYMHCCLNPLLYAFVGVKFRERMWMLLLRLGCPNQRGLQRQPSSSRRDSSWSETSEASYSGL
Assay: Antagonist activity at human CXCR3

>  <compound>
CNC(=O)c1cnc(N2CCN(C3CCN(C(=O)c4ccc(Cl)cc4)CC3)[C@@H](C)C2)c(Cl)c1

>  <IC50 (nM)>
210

$$$$
>  <compound>
CNC(=O)c1cnc(N2CCN(C3CCN(C4CCc5cc(Cl)ccc54)CC3)[C@@H](C)C2)c(Cl)c1 (single isomer, unassigned; isomer 2)

>  <IC50 (nM)>
35

$$$$
>  <compound>
CNC(=O)c1cnc(N2CCN(C3CCN(Cc4ccc(Cl)cc4F)CC3)[C@@H](C)C2)c(Cl)c1

>  <IC50 (nM)>
18

$$$$
>  <compound>
CNC(=O)c1cnc(N2CCN(C3CCN(Cc4cccs4)CC3)[C@@H](C)C2)c(Cl)c1

>  <IC50 (nM)>
1980

$$$$

----------
Parameter: IC50. Scope: all listed entries.
Target: C-X-C chemokine receptor type 3 (Homo sapiens, UniProt P49682)
Sequence (P49682 whole entry): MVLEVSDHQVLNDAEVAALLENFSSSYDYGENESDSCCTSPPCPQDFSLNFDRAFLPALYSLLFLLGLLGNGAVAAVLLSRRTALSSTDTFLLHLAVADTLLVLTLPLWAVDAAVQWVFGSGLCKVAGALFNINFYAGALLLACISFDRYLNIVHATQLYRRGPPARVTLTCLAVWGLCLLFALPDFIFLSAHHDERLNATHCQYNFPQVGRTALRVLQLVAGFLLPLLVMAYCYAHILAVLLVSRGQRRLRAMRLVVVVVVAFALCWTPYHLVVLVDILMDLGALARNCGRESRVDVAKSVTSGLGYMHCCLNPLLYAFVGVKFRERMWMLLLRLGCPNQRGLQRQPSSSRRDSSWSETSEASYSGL
Test: Antagonist activity at human CXCR3

>  <molecule>
CC[C@H]1CN(c2ncc(C(=O)NC)cc2Cl)CCN1C1CCN(Cc2ccc(Cl)cc2)CC1

>  <system_tested>
C-X-C chemokine receptor type 3 (Homo sapiens, UniProt P49682)

>  <measure_unit>
nM

>  <censoring_sign>
=

>  <IC50>
3

$$$$
>  <molecule>
CNC(=O)c1cnc(N2CCN(C3CCN(Cc4ccc(Cl)cc4)CC3)C(C(=O)OC)C2)c(Cl)c1 (centres undefined)

>  <system_tested>
C-X-C chemokine receptor type 3 (Homo sapiens, UniProt P49682)

>  <measure_unit>
nM

>  <censoring_sign>
=

>  <IC50>
140

$$$$
>  <molecule>
CNC(=O)c1cnc(N2CCN(C3CCN(Cc4ccc(Cl)cc4)CC3)C(C(=O)O)C2)c(Cl)c1 (centres undefined)

>  <system_tested>
C-X-C chemokine receptor type 3 (Homo sapiens, UniProt P49682)

>  <measure_unit>
nM

>  <censoring_sign>
>

>  <IC50>
50000

$$$$
>  <molecule>
CNC(=O)c1cnc(N2CCN(C3CCN(C(=O)c4ccnc5cc(Cl)ccc45)CC3)[C@@H](C)C2)c(Cl)c1

>  <system_tested>
C-X-C chemokine receptor type 3 (Homo sapiens, UniProt P49682)

>  <measure_unit>
nM

>  <censoring_sign>
>

>  <IC50>
10000

$$$$
